experiment: Molar enthalpy of transition or fusion; details: Crystal; DSC
Measure: Molar enthalpy of transition or fusion (kJ/mol)

Known results for compounds:
{"Compound": "c1ccc(-c2ncc[nH]2)cc1 [2-phenyl-1H-imidazole]", "Unit Text": "kJ/mol", "Molar enthalpy of transition or fusion": 17.8}
{"Compound": "c1ccc(-c2nc[nH]c2-c2ccccc2)cc1 [4,5-diphenylimidazole]", "Unit Text": "kJ/mol", "Molar enthalpy of transition or fusion": 32.3}

1: c1ccc(-c2nc(-c3ccccc3)c(-c3ccccc3)[nH]2)cc1 [2,4,5-triphenyl-1H-imidazole]
2: c1ccc2cc3ccccc3cc2c1 [anthracene]
input: // returns 1 or 2 , whichever has the lower Molar enthalpy of transition or fusion // caller expects the label of the chosen entry
output: 2
(2: 25.5 kJ/mol, 1: 37.3 kJ/mol)

====

conditions: Crystal; DTA
Measure: Triple point temperature (K)

{"Compound": "c1ccc(-c2nc(-c3ccccc3)c(-c3ccccc3)[nH]2)cc1 [2,4,5-triphenyl-1H-imidazole]", "Unit Text": "K", "Triple point temperature": 550.95}
{"Compound": "c1ccc(-c2nc[nH]c2-c2ccccc2)cc1 [4,5-diphenylimidazole]", "Unit Text": "K", "Triple point temperature": 504.95}
{"Compound": "c1ccc2cc3ccccc3cc2c1 [anthracene]", "Unit Text": "K", "Triple point temperature": 487.75}
{"Compound": "c1ccc(-c2ncc[nH]2)cc1 [2-phenyl-1H-imidazole]", "Unit Text": "K", "Triple point temperature": 419.95}
